Tested on: Escherichia coli TOP10
TEST_DESCRIPTION: shrunken log2 fold change of peptide-encoding DNA abundance (4.5 h post-induction vs induction); higher = less antimicrobial activity (less host growth inhibition)
CONDITION_INFO: time post-induction: 4.5 h; library: site-saturation at positions 5, 18, 19, 20
READOUT: shrunken log2 fold change

Incoming: I have this sequence here, RRIRGRPPRLPRPRPRPQEEPRP , and I need its recorded shrunken log2 fold change.
Outgoing: 0.0943

Incoming: I have this sequence here, RRIRMRPPRLPRPRPRPSVIPRP , and I need its recorded shrunken log2 fold change.
Outgoing: -0.244

Incoming: I have this sequence here, RRIRTRPPRLPRPRPRPVDTPRP , and I need its recorded shrunken log2 fold change.
Outgoing: 0.0439

Incoming: I have this sequence here, RRIRHRPPRLPRPRPRPHARPRP , and I need its recorded shrunken log2 fold change.
Outgoing: 0.0947

Incoming: I have this sequence here, RRIRDRPPRLPRPRPRPLGCPRP , and I need its recorded shrunken log2 fold change.
Outgoing: 0.206

Incoming: I have this sequence here, RRIRSRPPRLPRPRPRPTCQPRP , and I need its recorded shrunken log2 fold change.
Outgoing: 0.0682

Incoming: I have this sequence here, RRIRTRPPRLPRPRPRPYWRPRP , and I need its recorded shrunken log2 fold change.
Outgoing: -0.174

Incoming: I have this sequence here, RRIRNRPPRLPRPRPRPSQMPRP , and I need its recorded shrunken log2 fold change.
Outgoing: -0.232

Incoming: I have this sequence here, RRIRLRPPRLPRPRPRPCTQPRP , and I need its recorded shrunken log2 fold change.
Outgoing: -0.174

Incoming: I have this sequence here, RRIRYRPPRLPRPRPRPINRPRP , and I need its recorded shrunken log2 fold change.
Outgoing: -0.018

Batch request: shrunken log2 fold change per item, same order as input.
1. RRIRPRPPRLPRPRPRPMEWPRP
2. RRIRYRPPRLPRPRPRPGYMPRP
3. RRIRWRPPRLPRPRPRPANGPRP
4. RRIRARPPRLPRPRPRPWMHPRP

Outgoing:
-0.0225
-0.716
-0.186
0.026

Batch request: shrunken log2 fold change per item, same order as input.
1. RRIRLRPPRLPRPRPRPMVCPRP
2. RRIRQRPPRLPRPRPRPQRKPRP
3. RRIRGRPPRLPRPRPRPASDPRP

Outgoing:
1: -0.0634; 2: -0.058; 3: 0.987

###

Exercise: for every item that follows, state its recorded shrunken log2 fold change.
Tested on: Escherichia coli TOP10;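 note: peptides expressed intracellularly from a pBAD plasmid library in pooled LB shake-flask culture, induced with 0.3% L-arabinose, DNA abundance read by NGS, three biological replicates, DESeq2 with apeglm shrinkage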
TEST_DESCRIPTION: shrunken log2 fold change of peptide-encoding DNA abundance (4.5 h post-induction vs induction); higher = less antimicrobial activity (less host growth inhibition)
CONDITION_INFO: time post-induction: 4.5 h; library: site-saturation at positions 5, 18, 19, 20
Numbers only.

Incoming: I have this sequence here, RRIRWRPPRLPRPRPRPSHWPRP , and I need its recorded shrunken log2 fold change.
Outgoing: 0.3

Incoming: I have this sequence here, RRIRERPPRLPRPRPRPPPTPRP , and I need its recorded shrunken log2 fold change.
Outgoing: 0.518

Incoming: I have this sequence here, RRIRMRPPRLPRPRPRPLDFPRP , and I need its recorded shrunken log2 fold change.
Outgoing: -0.129

Incoming: I have this sequence here, RRIRMRPPRLPRPRPRPHVHPRP , and I need its recorded shrunken log2 fold change.
Outgoing: 0.0308

Batch request: shrunken log2 fold change per item, same order as input.
1. RRIRTRPPRLPRPRPRPPCLPRP
2. RRIRARPPRLPRPRPRPRCQPRP
3. RRIRARPPRLPRPRPRPIMNPRP
4. RRIRNRPPRLPRPRPRPETCPRP
5. RRIRMRPPRLPRPRPRPVGGPRP

Outgoing:
-0.0659
0.316
-0.151
0.262
0.961

Batch request: shrunken log2 fold change per item, same order as input.
1. RRIRARPPRLPRPRPRPPDKPRP
2. RRIRMRPPRLPRPRPRPCAVPRP
3. RRIRWRPPRLPRPRPRPKCEPRP
4. RRIRSRPPRLPRPRPRPHEHPRP
5. RRIRYRPPRLPRPRPRPWVDPRP
6. RRIRERPPRLPRPRPRPIYHPRP
7. RRIRPRPPRLPRPRPRPSAGPRP

Outgoing:
1: 0.572; 2: 0.296; 3: 0.359; 4: 0.113; 5: -0.445; 6: -0.626; 7: 0.243

Batch request: shrunken log2 fold change per item, same order as input.
1. RRIRMRPPRLPRPRPRPMDHPRP
2. RRIRLRPPRLPRPRPRPQLFPRP
3. RRIRERPPRLPRPRPRPGMNPRP
4. RRIRVRPPRLPRPRPRPHHPPRP

Outgoing:
-0.00783
0.131
-0.308
-0.131
